Each recorded value in this set is attributed to PubChem BioAssay AID2060486.

Answer each item with its documented viability, T/C.
Tested on: IGROV1 complex spheroids (HUVEC, MSC), viability % test/control
assayProcedure: Anticancer human tumor IGROV1 cell line growth inhibition [GQUAD];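 further: spheroids exposed to compounds for 7 days before readout; 100% = DMSO vehicle control viability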
conditionSummary: second compound 0.316 µM; first compound 1 µM; hits give low values
Answers are plain numbers, in %.

State the recorded viability, T/C for every item in the following list.
1. O=c1[nH]cc(F)c(=O)[nH]1 + Cc1cnc(CNC(=O)c2c(=O)c3ccc(N4CCCN(C)CC4)nc3n3c2sc2ccccc23)cn1
2. CC1COCCN1c1cc(C2(S(C)(=N)=O)CC2)nc(-c2ccnc3[nH]ccc23)n1 (stereo not given) + CN(C)c1ccc(Nc2c3ccc(NC(=O)CCN4CCCC4)cc3nc3cc(NC(=O)CCN4CCCC4)ccc23)cc1
3. C=CC(=O)N1CCN(c2nc(=O)n(-c3c(C)ccnc3C(C)C)c3nc(-c4c(O)cccc4F)c(F)cc23)C(C)C1 (stereo not given) + Cc1[nH]c2ccc(F)cc2c1-c1nc2c3cccnc3c3ncccc3c2[nH]1
4. C#Cc1c(F)ccc2cc(O)cc(-c3ncc4c(N5CC6CCC(C5)N6)nc(OCC56CCCN5CC(F)C6)nc4c3F)c12 (stereo not given) + CN(C)c1ccc(Nc2c3ccc(NC(=O)CCN4CCCC4)cc3nc3cc(NC(=O)CCN4CCCC4)ccc23)cc1
5. CC(=O)O[C@H]1C(=O)[C@@]2(C)[C@H]([C@H](OC(=O)c3ccccc3)[C@]3(O)C[C@H](OC(=O)[C@H](O)[C@@H](NC(=O)c4ccccc4)c4ccccc4)C(C)=C1C3(C)C)[C@]1(OC(C)=O)CO[C@@H]1C[C@@H]2O + Cc1[nH]c2ccc(F)cc2c1-c1nc2c3cccnc3c3ncccc3c2[nH]1
6. CC1COCCN1c1cc(C2(S(C)(=N)=O)CC2)nc(-c2ccnc3[nH]ccc23)n1 (stereo not given) + Cc1[nH]c2ccc(F)cc2c1-c1nc2c3cccnc3c3ncccc3c2[nH]1

Response:
[25.2, 51.4, 78.9, 86, 3.01, 21.1]
